- system: T1, human Nectin-4 (human, UniProt Q96NY8 32-349)
- T1 construct: a Gly32-Ser349 FLAG construct is described only under the SPR assay; also called PVRL4
- T1 sequence (looked up): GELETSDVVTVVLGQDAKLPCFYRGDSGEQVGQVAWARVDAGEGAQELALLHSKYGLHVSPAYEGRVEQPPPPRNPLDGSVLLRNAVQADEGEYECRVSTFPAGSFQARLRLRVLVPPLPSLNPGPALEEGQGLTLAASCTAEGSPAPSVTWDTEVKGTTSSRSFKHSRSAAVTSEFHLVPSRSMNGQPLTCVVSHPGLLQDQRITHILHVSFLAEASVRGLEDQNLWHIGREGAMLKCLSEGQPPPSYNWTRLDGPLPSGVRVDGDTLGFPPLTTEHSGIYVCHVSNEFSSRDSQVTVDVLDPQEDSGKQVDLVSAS
- protocol-notes: FP competition, tracer SEQ ID NO 217
*1 amine or outer side, *2 acyl side, *3 side chain or, on linkers, in order; H or OH if unused. Bridges are numbered along the chain shown (N, C = ends). Where no end group is shown, it is not given here. [ ]: non-standard residue; d: D form. 124TriAz = 3-(1,2,4-triazol-1-yl)-alanine, O=C([C@H](Cn1cncn1)N[*:1])[*:2]; TATA = O=C(CC[*:1])N1CN(C(=O)CC[*:2])CN(C(=O)CC[*:3])C1; 1Nal = N[C@@H](Cc1cccc2ccccc12)C(=O)O; 2Nal = N[C@@H](Cc1ccc2ccccc2c1)C(=O)O; Ser(ΨH,HPro) = O=C(O)[C@@H]1COCN1; Hyp = O=C(O)[C@@H]1C[C@@H](O)CN1; NMeI = CC[C@H](C)[C@H](NC)C(=O)O; hArg = N=C(N)NCCCC[C@H](N)C(=O)O; 2Pal = N[C@@H](Cc1ccccn1)C(=O)O; Agb = N=C(N)NCC[C@H](N)C(=O)O
Mark true (1) only when Ki stays strictly below 10 nM. Values equal to the cut-off are false (0).

# binder, label-value
rows = [
    ("Ac-CP[2Nal][dD]CM[hArg]NWSTPIWC (linker 1-5-15 via TATA) [BCY8031]", "true (1)"),
    ("Ac-C[Ser(ΨH,HPro)]F[dD]CM[hArg]NWSTPIWC (linker 1-5-15 via TATA) [BCY7876]", "false (0)"),
    ("Ac-CPFGCMKDWSWPIWC (linker 1-5-15 via TATA, also called 80-09-02-N050) [BCY7661]", "false (0)"),
    ("Ac-Q[dA]WCAPLSDYWCNRIC (linker 4-12-16 via TATA) [BCY7635]", "false (0)"),
    ("Ac-CP[1Nal][dD]CL[hArg]DWSTP[Hyp]WC (linker 1-5-15 via TATA) [BCY8212]", "true (1)"),
    ("Ac-QKWCAPLSDY[1Nal]CNRIC (linker 4-12-16 via TATA) [BCY7998]", "false (0)"),
    ("Ac-CPFGCMKNWSWPIYC (linker 1-5-15 via TATA) [BCY7597]", "false (0)"),
    ("Ac-CPF[dD]CM[hArg]NWS[124TriAz]PIWC (linker 1-5-15 via TATA) [BCY7883]", "false (0)"),
    ("Ac-CP[2Pal]GCMKNWSWPIWC (linker 1-5-15 via TATA) [BCY7620]", "false (0)"),
    ("Ac-CP[1Nal][dR]CM[Agb]DWSTP[Hyp]WC (linker 1-5-15 via TATA) [BCY8192]", "true (1)"),
    ("Ac-CP[1Nal][dR]CMPDWSTP[Hyp]WC (linker 1-5-15 via TATA) [BCY8193]", "true (1)"),
    ("Ac-CPFGCMKN[1Nal]SWPIWC (linker 1-5-15 via TATA) [BCY7663]", "false (0)"),
    ("ACPFGCMKNWSWPIWC[dA]NK (linker 2-6-16 via TATA) [BCY7367]", "false (0)"),
    ("Ac-CPF[dD]CM[hArg]KWSTPIWC (linker 1-5-15 via TATA) [BCY7822]", "false (0)"),
    ("Ac-QKWCAPLSDYWCARIC (linker 4-12-16 via TATA) [BCY7631]", "false (0)"),
    ("Ac-CPF[dD]CM[hArg]NWSTP[NMeI]WC (linker 1-5-15 via TATA) [BCY8158]", "false (0)"),
    ("QKWCAPLSDYWCN[hArg]ICA (linker 4-12-16 via TATA) [BCY7279]", "false (0)"),
    ("DDACPFGCMETWSWPIWCA (linker 4-8-18 via TATA) [BCY3386]", "false (0)"),
    ("Ac-CPFGCMKNWSWPIWC (linker 1-5-15 via TATA, also called 80-09-02-N008) [BCY7390]", "false (0)"),
    ("Ac-CP[1Nal][dR]CM[hArg]DWSTPIWC (linker 1-5-15 via TATA) [BCY8215]", "true (1)"),
    ("ACPFGCMKAWSWPIWCTNK (linker 2-6-16 via TATA, also called 80-09-02-T01-N027) [BCY7357]", "false (0)"),
]
